biological target: human HDAC-10 (Homo sapiens)
Sequence (Q969S8 whole entry): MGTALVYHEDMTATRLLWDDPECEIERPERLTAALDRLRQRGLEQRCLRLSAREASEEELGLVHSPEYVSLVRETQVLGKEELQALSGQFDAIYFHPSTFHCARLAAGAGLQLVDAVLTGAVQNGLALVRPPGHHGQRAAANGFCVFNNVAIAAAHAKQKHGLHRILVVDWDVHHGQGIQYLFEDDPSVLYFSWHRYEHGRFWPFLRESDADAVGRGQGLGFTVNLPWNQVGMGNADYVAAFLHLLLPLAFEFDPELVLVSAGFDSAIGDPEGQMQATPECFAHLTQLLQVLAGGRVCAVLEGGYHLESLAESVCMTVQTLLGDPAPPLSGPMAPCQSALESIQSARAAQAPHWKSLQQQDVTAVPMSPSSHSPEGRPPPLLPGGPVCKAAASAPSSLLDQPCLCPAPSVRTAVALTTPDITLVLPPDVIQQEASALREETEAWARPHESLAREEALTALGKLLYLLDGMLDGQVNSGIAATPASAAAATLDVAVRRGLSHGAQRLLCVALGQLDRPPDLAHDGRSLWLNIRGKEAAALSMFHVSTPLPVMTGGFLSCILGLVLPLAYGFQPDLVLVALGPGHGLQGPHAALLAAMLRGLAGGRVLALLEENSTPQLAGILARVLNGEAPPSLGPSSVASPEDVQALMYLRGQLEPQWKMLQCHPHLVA
recordedMetric: pIC50
Quick note: pIC50 values are minus log10 of concentrations in mol/L.

// lookup pIC50 | system=human HDAC-10 (Homo sapiens) | key= C/C=C1\NC(=O)[C@H]2CSSCC/C=C/[C@H](CC(=O)N[C@H](C(C)C)C(=O)N2)OC(=O)[C@H](C(C)C)NC1=O 9.88

###

molecular target: human HDAC-5 (Homo sapiens, UniProt Q9UQL6); construct: purchased Reaction Biology Corporation (Malvern, PA); test: HDAC inhibition assay; type: biochemical
Sequence (Q9UQL6 whole entry): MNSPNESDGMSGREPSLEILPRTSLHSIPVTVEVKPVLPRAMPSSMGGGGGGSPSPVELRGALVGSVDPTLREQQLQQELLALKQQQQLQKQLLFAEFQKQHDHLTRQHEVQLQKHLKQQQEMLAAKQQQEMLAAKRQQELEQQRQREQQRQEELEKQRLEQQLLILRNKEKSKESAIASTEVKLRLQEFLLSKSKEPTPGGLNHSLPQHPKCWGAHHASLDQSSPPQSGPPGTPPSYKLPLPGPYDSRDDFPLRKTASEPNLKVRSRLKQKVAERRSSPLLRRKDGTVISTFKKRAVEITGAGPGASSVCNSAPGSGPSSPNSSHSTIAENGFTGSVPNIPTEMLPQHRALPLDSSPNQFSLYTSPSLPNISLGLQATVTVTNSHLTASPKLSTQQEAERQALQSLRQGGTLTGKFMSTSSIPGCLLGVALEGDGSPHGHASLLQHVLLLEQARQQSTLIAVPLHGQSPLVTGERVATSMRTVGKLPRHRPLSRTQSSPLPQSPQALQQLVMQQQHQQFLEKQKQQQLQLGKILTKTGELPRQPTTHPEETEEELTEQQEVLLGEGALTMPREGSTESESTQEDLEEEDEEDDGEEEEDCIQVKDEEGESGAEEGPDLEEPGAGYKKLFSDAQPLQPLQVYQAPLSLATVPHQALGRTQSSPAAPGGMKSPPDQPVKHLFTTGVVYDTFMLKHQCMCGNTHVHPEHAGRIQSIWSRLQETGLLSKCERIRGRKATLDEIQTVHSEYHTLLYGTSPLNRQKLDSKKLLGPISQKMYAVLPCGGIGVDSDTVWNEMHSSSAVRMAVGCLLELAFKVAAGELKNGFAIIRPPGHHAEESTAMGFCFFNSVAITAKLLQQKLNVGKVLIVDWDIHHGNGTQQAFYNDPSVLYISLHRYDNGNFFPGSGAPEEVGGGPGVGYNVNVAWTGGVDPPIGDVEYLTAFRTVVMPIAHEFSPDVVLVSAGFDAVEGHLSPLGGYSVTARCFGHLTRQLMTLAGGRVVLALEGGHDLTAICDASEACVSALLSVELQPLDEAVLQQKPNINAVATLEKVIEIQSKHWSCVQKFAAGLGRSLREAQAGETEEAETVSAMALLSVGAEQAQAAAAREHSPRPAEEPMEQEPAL
recordedMetric: IC50
Answer format: value, then unit.

Which value of IC50 has been reported for C/C=C1\NC(=O)[C@H]2CSSCC/C=C/[C@H](CC(=O)N[C@H](C(C)C)C(=O)N2)OC(=O)[C@H](C(C)C)NC1=O in the records? 1160 nM

###

experiment: Human serum binding by equilibrium dialysis, HPLC/mass spectrometry; format: in vitro ADME; details: read-out: Human serum binding (free fraction)
recordedMetric: fraction unbound
Note: the reply should be a number with no unit written.

Which value of fraction unbound has been reported for C/C=C1\NC(=O)[C@H]2CSSCC/C=C/[C@H](CC(=O)N[C@H](C(C)C)C(=O)N2)OC(=O)[C@H](C(C)C)NC1=O [RMD, romidepsin] in the records? 0.08

###

assay: Cell culture medium protein binding by equilibrium dialysis, HPLC/mass spectrometry; type: in vitro ADME; settings: cell culture medium; equilibrium dialysis; read-out: Cell culture medium protein binding (free fraction)
recordedMetric: fraction unbound
Note: the reply should be a number with no unit written.

Which value of fraction unbound has been reported for C/C=C1\NC(=O)[C@H]2CSSCC/C=C/[C@H](CC(=O)N[C@H](C(C)C)C(=O)N2)OC(=O)[C@H](C(C)C)NC1=O in the records? 0.55

###

// reported CC50 at 48 h per item
assay: Compound-associated cytotoxicity in latently infected cells (Cell Titer Glo); assay type: cell-based, human; settings: human, latently infected (NL4.3-Luc) primary CD4+ T cells, continuous 48 hours, 50% cell viability reduction, three donors, mean ± SD
Write the value in µM as a bare number.

- C/C=C1\NC(=O)[C@H]2CSSCC/C=C/[C@H](CC(=O)N[C@H](C(C)C)C(=O)N2)OC(=O)[C@H](C(C)C)NC1=O: 0.1

Which value of CC50 at 48 h has been reported for Nc1ccccc1NC(=O)c1ccc(CNc2nccc(-c3cccnc3)n2)cc1 in the records? 10.1

Which value of CC50 at 48 h has been reported for CCN(CC)Cc1ccc2cc(COC(=O)Nc3ccc(C(=O)NO)cc3)ccc2c1 in the records? 24

###

assay: Compound-associated cytotoxicity in latently infected cells (Cell Titer Glo); format: cell-based, human; conditions: human, latently infected (NL4.3-Luc) primary CD4+ T cells, continuous 48 hours, 50% cell viability reduction, three donors, mean ± SD
recordedMetric: CC50 at 48 h

Some solved cases for reference:
* CCCCc1nc2cc(/C=C/C(=O)NO)ccc2n1CCN(CC)CC | > 50 µM
* O=C(CCCCCCC(=O)Nc1ccccc1)NO [VOR, suberoylanilide hydroxamic acid] | > 25 µM

Now take the following compound into account.
Which value of CC50 at 48 h has been reported for Cc1[nH]c2ccccc2c1CCNCc1ccc(/C=C/C(=O)NO)cc1 in the records? > 2.5 µM
